Assay: chemical genetic growth profiling, strain panel (AID 1159580);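 note: tested at 20 µM; growth read once vehicle control cultures reached saturation at 30 °C; 1 = growth at the plate median or of vehicle wells; lower values mean less growth of the strain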
Conditions: S. cerevisiae deletion strains, growth OD, locus YKL085W, strain MDH1 (second series), hits give low values
About 2,000 (36%) of roughly 5,500 compounds were called active. Roughly 18% stayed inconclusive and do not appear here. The list shows a part of the results.
parameter: normalized growth
// keep it numeric: no unit symbol after the value

CCC/C=C/C=C/[C@@H]1C[C@@H](O)[C@@H](O)C(=O)[C@H]1C=O : 0.88
COc1ccc2cc3[n+](cc2c1OC)CCc1cc2c(cc1-3)OCO2 : 0.996
COCCOC(=O)C1=C(C)NC(C)=C(C(=O)OC(C)C)C1c1cccc([N+](=O)[O-])c1 (stereo unspecified) : 0.986
C=CCc1ccccc1OCC(O)CNC(C)C (stereo unspecified) : 1.01
CCC(/C=C/[C@@H](C)[C@H]1CCC2C3CC=C4C[C@@H](O)CC[C@]4(C)C3CC[C@@]21C)C(C)C (stereo partly specified) : 0.993
CCC(CCC(C)[C@H]1CCC2C3CC=C4C[C@@H](O)CC[C@]4(C)C3CC[C@@]21C)C(C)C (stereo partly specified) : 0.998
O=c1[nH]c2cc(Cl)c(Cl)cc2[nH]c1=O : 1.01
O=C(O)c1nc2cc(Cl)c(Cl)cc2[nH]c1=O : 1.02
COc1cc([C@@H]2c3cc4c(cc3[C@H](OC(C)=O)[C@H]3COC(=O)[C@H]23)OCO4)cc(OC)c1OC : 1
CN(N=O)C(=O)N[C@@H]1[C@@H](O)[C@H](O)[C@@H](CO)O[C@@H]1O : 1.01

# evaluate next
Q: Can you share its normalized growth? I mean this molecule: NC(=O)CC[C@@H](N)C(=O)O
Ans: 1.01
